Ref: patent US8093273B2

tested on: hApoA-I transgenic mice; assay: hApoA-I transgenic mice, oral gavage for 14 days; assay type: in vivo; conditions: Mus musculus, po, 336 h, Table 6 fourth group, 10 mg/kg BID 14 days, relative to pretreatment; Control 3 1.11; read-out: ApoA-I (% change)
Could you mark each record y if its change in vivo at 10 mg/kg falls strictly under 10%, and n if it equals or exceeds it?

O=c1cc(-c2ccc(O)cc2)oc2cnccc12 = n
O=c1cc(-c2ccc(O)nc2)oc2ccccc12 [Example 48, 2-(6-Hydroxypyridin-3-yl)-chromen-4-one] = y
O=c1cc(-c2ccc(O)cc2)oc2ccncc12 = n

Quick check: change in vivo at 10 mg/kg of O=c1[nH]c(-c2ccc(O)cc2)cc2ccccc12 [Example 53, 3-(4-hydroxyphenyl)-2H-isoquinolin-1-one] under 10%?
n

Quick check: change in vivo at 10 mg/kg of Oc1ccc(-c2cc3ncccc3cn2)cc1 under 10%?
y
